# credit: patent US20090253669A1

biological target: B1R receptor of the rat (rB1R) (Rattus norvegicus, UniProt P97583); construct: host or cells: CHO K1 cells; test: FLIPR Ca2+ assay on rB1R-transfected CHO K1 cells, antagonistic action; format: cell-based; settings: CHO-K1, 10 μM test substance; agonist Des-Arg9-bradykinin 100 nM; % of maximum achievable inhibition; read-out: rB1R [10 μM] % inhibition
Sequence (P97583 whole entry): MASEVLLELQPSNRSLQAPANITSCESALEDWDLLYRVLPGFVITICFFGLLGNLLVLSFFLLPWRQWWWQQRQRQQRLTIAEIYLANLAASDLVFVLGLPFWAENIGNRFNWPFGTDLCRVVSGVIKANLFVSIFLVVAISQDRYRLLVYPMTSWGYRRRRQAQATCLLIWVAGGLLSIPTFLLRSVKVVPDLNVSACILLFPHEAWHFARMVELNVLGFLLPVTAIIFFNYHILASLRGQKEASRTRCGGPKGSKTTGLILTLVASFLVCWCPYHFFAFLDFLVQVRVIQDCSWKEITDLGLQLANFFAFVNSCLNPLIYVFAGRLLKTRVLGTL

- Compound: "CN(CCC1CCC(Cc2ccccc2)(N2CCCC2)CC1)C(=O)CC1CCCCN1S(=O)(=O)c1cccc(C(F)(F)F)c1 (centres unmarked)"
  inhibition at 10 µM (%): 66
- Compound: "CN(C)C1(c2cccc(F)c2)CCC(NC(=O)COCCN(C)S(=O)(=O)c2ccc(Cl)cc2Cl)CC1 (centres unmarked)"
  inhibition at 10 µM (%): 67
- Compound: "COc1cc(C)c(S(=O)(=O)N(C)CCOCC(=O)N2CCC(c3ccccc3)(N3CCN(C)CC3)CC2)c(C)c1"
  inhibition at 10 µM (%): 101
- Compound: "CN1CCN(C2(c3ccccc3)CCN(C(=O)COCC3CCc4ccccc4N3S(=O)(=O)c3ccc(Cl)c(Cl)c3)CC2)CC1 (centres unmarked)"
  inhibition at 10 µM (%): 72
- Compound: "COc1cc(C)c(S(=O)(=O)N(C)CCOCC(=O)N(C)CCC2CCC(c3ccccc3)(N3CCCC3)CC2)c(C)c1 (centres unmarked)"
  inhibition at 10 µM (%): 101
- Compound: "COc1cc(C)c(S(=O)(=O)N(C)CCOCC(=O)NC2CCC(Cc3ccccc3)(N3CCCCC3)CC2)c(C)c1 (centres unmarked)"
  inhibition at 10 µM (%): 75
- Compound: "O=C(CC1c2ccccc2CCN1S(=O)(=O)c1ccc(Cl)c(Cl)c1)NC1CCC(Cc2ccccc2)(N2CCCCCC2)CC1 (centres unmarked)"
  inhibition at 10 µM (%): 80
- Compound: "Cc1cccc(Cl)c1S(=O)(=O)N1CCCCC1CCCC(=O)N1CCC(c2cccc(F)c2)(N2CCN(C)CC2)CC1 (centres unmarked)"
  inhibition at 10 µM (%): 100
- Compound: "O=C(COCC1CCCN1S(=O)(=O)c1c(Cl)cc(Cl)cc1Cl)NC1CCC(c2ccccc2)(N2CCOCC2)CC1 (centres unmarked)"
  inhibition at 10 µM (%): 90
- Compound: "COc1cc(C)c(S(=O)(=O)N(C)CCOCC(=O)N2CCC(N)(c3ccccc3)CC2)c(C)c1"
  inhibition at 10 µM (%): 100
- Compound: "COc1cc(C)c(S(=O)(=O)N(C)CCOCC(=O)NC2CCC(CCc3ccccc3)(N(C)C)CC2)c(C)c1 (centres unmarked)"
  inhibition at 10 µM (%): 100
- Compound: "CN(CC1CCC(c2ccccc2)(N2CCCC2)CC1)C(=O)CC(NS(=O)(=O)c1ccc2ccccc2c1)c1ccccc1 (centres unmarked)"
  inhibition at 10 µM (%): 95
- Compound: "COc1cc(C)c(S(=O)(=O)N2CCC(OCC(=O)NC3CCC(c4ccccc4)(N4CCCCC4)CC3)C2)c(C)c1 (centres unmarked)"
  inhibition at 10 µM (%): 51
- Compound: "Cc1cc(S(=O)(=O)N2CCCCC2CCC(=O)N2CCC(c3ccccc3)(N3CCN(c4ccncc4)CC3)CC2)c(C)cc1Cl (centres unmarked)"
  inhibition at 10 µM (%): 90

====

target: B1R receptor of the rat (rB1R) (Rattus norvegicus, UniProt P97583); construct: host or cells: CHO K1 cells; experiment: FLIPR Ca2+ assay on rB1R-transfected CHO K1 cells, antagonistic action; type: cell-based; conditions: CHO-K1, 10 μM test substance; agonist Des-Arg9-bradykinin 100 nM; % of maximum achievable inhibition; read-out: rB1R [10 μM] % inhibition
Catalogue of molecules with associated inhibition at 10 µM
Endpoint: inhibition at 10 µM (%)

- Molecule: "COc1cc(C)c(S(=O)(=O)N2CCC(OCC(=O)N(C)CC3CCC(Cc4ccccc4)(N4CCN(C)CC4)CC3)C2)c(C)c1 (stereo not drawn)"
  Units: "%"
  Assay value: 78
- Molecule: "COc1cc(C)c(S(=O)(=O)N2CCCC2COCC(=O)N(C)CC2CCC(Cc3ccccc3)(N3CCN(C)CC3)CC2)c(C)c1 (stereo not drawn)"
  Units: "%"
  Assay value: 101
- Molecule: "CN(C)C1(c2ccccc2)CCN(C(=O)COCC2CCc3ccccc3N2S(=O)(=O)c2ccc(Cl)c(Cl)c2)CC1 (stereo not drawn)"
  Units: "%"
  Assay value: 78
- Molecule: "COc1cc(C)c(S(=O)(=O)N2c3ccccc3OCC2COCC(=O)N2CCC(c3cccc(F)c3)(N3CCN(C)CC3)CC2)c(C)c1 (stereo not drawn)"
  Units: "%"
  Assay value: 99
- Molecule: "COc1cc(C)c(S(=O)(=O)N2CCCCC2COCC(=O)N(C)CCCC2CCC(CCc3ccccc3)(N3CCCC3)CC2)c(C)c1 (stereo not drawn)"
  Units: "%"
  Assay value: 100
- Molecule: "O=C(COCC1CCCCN1S(=O)(=O)c1c(Cl)cc(Cl)cc1Cl)NC1CCC(Cc2ccccc2)(N2CCCC2)CC1 (stereo not drawn)"
  Units: "%"
  Assay value: 93
- Molecule: "Cc1cc(S(=O)(=O)N2CCCCC2CCC(=O)N2CCC(CCc3ccccc3)(N3CCN(C)CC3)CC2)c(C)cc1Cl (stereo not drawn)"
  Units: "%"
  Assay value: 66
- Molecule: "CN(C)C1(CCc2ccccc2)CCC(NC(=O)CC2c3ccccc3CCN2S(=O)(=O)c2ccc(Cl)c(Cl)c2)CC1 (stereo not drawn)"
  Units: "%"
  Assay value: 105
- Molecule: "COc1cc(C)c(S(=O)(=O)N2CCCCC2COCC(=O)N(C)CCC2CCC(Cc3ccccc3)(N(C)C)CC2)c(C)c1 (stereo not drawn)"
  Units: "%"
  Assay value: 99
- Molecule: "CN(CCCC1CCC(CCc2ccccc2)(N2CCCC2)CC1)C(=O)CC(NS(=O)(=O)c1ccc2ccccc2c1)c1ccccc1 (stereo not drawn)"
  Units: "%"
  Assay value: 99
- Molecule: "COc1cc(C)c(S(=O)(=O)N(C)CCOCC(=O)NC2CCC(Cc3ccccc3)(N3CCOCC3)CC2)c(C)c1 (stereo not drawn)"
  Units: "%"
  Assay value: 82
- Molecule: "CN1CCN(C2(c3cccc(F)c3)CCN(C(=O)CCCC3CCCCN3S(=O)(=O)c3ccc4ccccc4c3)CC2)CC1 (stereo not drawn)"
  Units: "%"
  Assay value: 95
- Molecule: "COc1cc(C)c(S(=O)(=O)N(C)CCOCC(=O)N(C)CCCC2CCC(c3ccccc3)(N3CCCC3)CC2)c(C)c1 (stereo not drawn)"
  Units: "%"
  Assay value: 99
- Molecule: "CN1CCN(C2(CCc3ccccc3)CCC(CN(C)C(=O)COCC3CCCN3S(=O)(=O)c3c(Cl)cc(Cl)cc3Cl)CC2)CC1 (stereo not drawn)"
  Units: "%"
  Assay value: 79
- Molecule: "CN(CCC1CCC(CCc2ccccc2)(N2CCCC2)CC1)C(=O)CC(NS(=O)(=O)c1ccc2ccccc2c1)c1ccccc1 (stereo not drawn)"
  Units: "%"
  Assay value: 73

====

Catalogue of molecules with associated inhibition at 10 µM
target: human B1R receptor (hB1R) (Homo sapiens, UniProt P46663); construct: host or cells: CHO K1 cells; test: FLIPR Ca2+ assay on hB1R-transfected CHO K1 cells, antagonistic action; assay type: cell-based; conditions: CHO-K1, 10 μM test substance; agonist Lys-Des-Arg9-bradykinin 0.5 nM; % of maximum achievable inhibition; read-out: hB1R [10 μM] % inhibition
Sequence (P46663 whole entry): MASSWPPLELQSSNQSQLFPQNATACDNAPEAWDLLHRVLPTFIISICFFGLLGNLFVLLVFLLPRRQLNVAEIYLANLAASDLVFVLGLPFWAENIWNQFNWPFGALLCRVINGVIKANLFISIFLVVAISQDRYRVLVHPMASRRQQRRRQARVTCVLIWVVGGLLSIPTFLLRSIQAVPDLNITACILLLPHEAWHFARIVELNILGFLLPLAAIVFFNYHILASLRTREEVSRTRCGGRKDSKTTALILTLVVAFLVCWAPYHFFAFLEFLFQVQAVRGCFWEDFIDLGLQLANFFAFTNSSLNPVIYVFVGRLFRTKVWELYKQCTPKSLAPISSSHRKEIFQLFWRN
Endpoint: inhibition at 10 µM (%)

- Molecule: "COc1cc(C)c(S(=O)(=O)N2CCCCC2COCC(=O)N(C)CC2CCC(Cc3ccccc3)(N3CCN(C)CC3)CC2)c(C)c1 (stereo not shown)"
  Endpoint: "inhibition at 10 µM"
  Units: "%"
  Assay value: 103
- Molecule: "COc1cc(C)c(S(=O)(=O)N2CCCC2COCC(=O)NC2CCC(Cc3ccccc3)(N3CCOCC3)CC2)c(C)c1 (stereo not shown)"
  Endpoint: "inhibition at 10 µM"
  Units: "%"
  Assay value: 45
- Molecule: "CN(CCC1CCC(Cc2ccccc2)(N(C)C)CC1)C(=O)CC(NS(=O)(=O)c1ccc2ccccc2c1)c1ccccc1 (stereo not shown)"
  Endpoint: "inhibition at 10 µM"
  Units: "%"
  Assay value: 101
- Molecule: "COc1cc(C)c(S(=O)(=O)N2CCCCC2COCC(=O)NC2CCC(c3ccccc3)(N3CCCC3)CC2)c(C)c1 (stereo not shown)"
  Endpoint: "inhibition at 10 µM"
  Units: "%"
  Assay value: 94
- Molecule: "COc1cc(C)c(S(=O)(=O)N2CCC(OCC(=O)NCC3CCC(c4ccccc4)(N4CCOCC4)CC3)C2)c(C)c1 (stereo not shown)"
  Endpoint: "inhibition at 10 µM"
  Units: "%"
  Assay value: 64
- Molecule: "CN(CC1CCC(Cc2ccccc2)(N2CCCC2)CC1)C(=O)CC(NS(=O)(=O)c1ccc2ccccc2c1)c1ccccc1 (stereo not shown)"
  Endpoint: "inhibition at 10 µM"
  Units: "%"
  Assay value: 97
- Molecule: "CN(CC1CCC(Cc2ccccc2)(N2CCCC2)CC1)C(=O)COCC1CCc2ccccc2N1S(=O)(=O)c1ccc(Cl)c(Cl)c1 (stereo not shown)"
  Endpoint: "inhibition at 10 µM"
  Units: "%"
  Assay value: 90
